Target: Mitogen-activated protein kinase 12 (Homo sapiens)
Experiment: Inhibition of p38-gamma assessed as residual enzyme activity at 10 uM relative to untreated control
measurement-name: Activity (%)

Use the examples below as a reference point.
Problem: Activity for `c1ccc2c(c1)[nH]c1c3cc[nH]c3ccc21` ?
Result: 111

Problem: Form field: reported Activity of `O=Cc1c[nH]c2ccc3c4ccccc4[nH]c3c12`
Result: 109

[A] c1ccc2c(c1)[nH]c1c2ccc2cc[nH]c21
[B] O=Cc1c[nH]c2c1ccc1c3ccccc3[nH]c12
Problem: Smaller Activity value, A vs B ? Record your answer as the label of the chosen record.
Result: B
(B: 74%, A: 111%)

---

Assay: Inhibition of PKA assessed as residual enzyme activity at 10 uM relative to untreated control
measurement-name: Activity (%)

Problem: Can you look up the measured Activity of `c1ccc2c(c1)[nH]c1c3cc[nH]c3ccc21` for me?
Result: 96

[1] O=Cc1c[nH]c2c1ccc1c3ccccc3[nH]c12
[2] c1ccc2c(c1)[nH]c1c2ccc2cc[nH]c21
Problem: Between item 1 and item 2 , which reported Activity is smaller? Returns: label corresponding to the selected item.
Result: 1

---

Target: Serine/threonine-protein kinase pim-1 (Homo sapiens)
Assay: Inhibition of Pim-1 assessed as residual enzyme activity at 1 uM relative to untreated control
measurement-name: Activity (%)

Solved cases below.
Problem: Could you share which Activity value was measured for `O=C(c1c[nH]c2c1ccc1c3ccccc3[nH]c12)C(F)(F)F` ?
Result: 61

Problem: // query Activity value for entry `O=Cc1c[nH]c2c1ccc1c3cc(Br)ccc3[nH]c12`
Result: 31

Problem: Sample `COc1cccc(-c2ccc3[nH]c4c(ccc5c(C=O)c[nH]c54)c3c2)c1` — what was its Activity?
Result: 64

Problem: Name the reported Activity value associated with the compound `O=Cc1c[nH]c2c1ccc1c3cc(-c4ccc(OC(F)(F)F)cc4)ccc3[nH]c12`
Result: 68

Problem: Report Activity for `O=Cc1c[nH]c2c1ccc1c3cc(-c4ccc(-c5ccccc5)cc4)ccc3[nH]c12` please.
Result: 69

[P] OCCc1c[nH]c2c1ccc1c3ccccc3[nH]c12
[Q] O=Cc1c[nH]c2c1ccc1c3cc(-c4ccccc4)ccc3[nH]c12
[R] O=Cc1c[nH]c2c1ccc1c3cc(-c4ccc(F)cc4F)ccc3[nH]c12
Problem: Ascending sort, Activity. Answer format: the labels, in the requested order.
Result: R, Q, P

---

Target: Serine/threonine-protein kinase D1 (Homo sapiens)
Test: Inhibition of PKD1 assessed as residual enzyme activity at 10 uM relative to untreated control
measurement-name: Activity (%)

Answered examples (2):
Problem: Recorded Activity for `c1ccc2c(c1)[nH]c1c3cc[nH]c3ccc21` , please?
Result: 71

Problem: Request the reported Activity associated with `O=Cc1c[nH]c2ccc3c4ccccc4[nH]c3c12`
Result: 87

[1] c1ccc2c(c1)[nH]c1c2ccc2cc[nH]c21
[2] O=Cc1c[nH]c2c1ccc1c3ccccc3[nH]c12
Problem: Kindly compare 1 with 2 and tell me which has the lower Activity figure. Give the chosen item's label as your response.
Result: 2
(2: 28%, 1: 83%)

---

Biological target: Serine/threonine-protein kinase pim-2 (Homo sapiens)
Experiment: Inhibition of Pim-2 assessed as residual enzyme activity at 1 uM relative to untreated control
measurement-name: Activity (%)

Problem: What Activity value was documented for this molecule, `O=S(=O)(c1ccccc1)n1ccc2ccc3c4ccccc4[nH]c3c21` ?
Result: 65

Problem: Quick check: Activity of `O=Cc1c[nH]c2c1ccc1c3cc(-c4ccc(C(F)(F)F)cc4)ccc3[nH]c12` ?
Result: 49

Problem: What value of Activity has been reported for the following molecule? `OCc1c[nH]c2c1ccc1c3ccccc3[nH]c12`
Result: 46

Problem: May I ask what Activity has been recorded for `CCN(CC)C(=O)/C(=N\O)c1c[nH]c2c1ccc1c3ccccc3[nH]c12` ?
Result: 62

Problem: GET /values?readout=Activity&item= `O=Cc1c[nH]c2c1ccc1c3cc(-c4ccccc4)ccc3[nH]c12`
Result: 68

Problem: Request the reported Activity associated with `O=Cc1c[nH]c2c1ccc1c3cc(-c4ccc(F)cc4)ccc3[nH]c12`
Result: 72

Problem: Can you share its Activity? I mean this molecule: `Brc1ccc2[nH]c3c(ccc4cc[nH]c43)c2c1`
Result: 67

Problem: What value of measured Activity is listed for `OCCc1c[nH]c2c1ccc1c3ccccc3[nH]c12` ?
Result: 69

Problem: Name the recorded Activity for `O=Cc1c[nH]c2c1ccc1c3cc(Br)ccc3[nH]c12` .
Result: 82

Problem: Give its Activity value. Item: `O=Cc1c[nH]c2c1ccc1c3cc(-c4ccc(OC(F)(F)F)cc4)ccc3[nH]c12`
Result: 73

Problem: # lookup: Activity of `O=C(c1c[nH]c2c1ccc1c3ccccc3[nH]c12)C(F)(F)F`
Result: 54

Problem: Report Activity for `O=Cc1c[nH]c2c1ccc1c3cc(-c4ccc(-c5ccccc5)cc4)ccc3[nH]c12` please.
Result: 67

Problem: Suppose we examine the molecule `COc1cccc(-c2ccc3[nH]c4c(ccc5c(C=O)c[nH]c54)c3c2)c1` ; what Activity value has been reported?
Result: 65

Problem: Please give the measured Activity for this molecule: `O=Cc1c[nH]c2c1ccc1c3cc(-c4ccc(F)cc4F)ccc3[nH]c12`
Result: 59

Data origin: ChEMBL document CHEMBL1154186
